Origin of values: patent US20230406921A1

# target.or.system: T1, recombinant antigen of the extracellular region of CD47 (Sino Biological, Cat: 12283-H08H) (human, UniProt Q08722 19-139)
# T1 construct: extracellular domain; also called recombinant CD47 extracellular region; CD47 recombinant protein
# T1 sequence (Q08722 19-139 limits assumed): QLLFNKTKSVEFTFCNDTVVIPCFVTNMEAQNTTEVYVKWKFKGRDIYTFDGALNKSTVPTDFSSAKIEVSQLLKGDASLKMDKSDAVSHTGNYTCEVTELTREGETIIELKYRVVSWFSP
# method.notes: Fortebio BLI, antibody on AHC sensor, CD47 extracellular region 100 nM;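 further: antibody held on the sensor through anti-human Fc capture, CD47 antigen in solution, association and dissociation phases each lasting 300 s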
# key: entry, value: koff
Form entry: value (s⁻¹) — number only.

Ask: Report measured koff; entry is hz140-Hm6/hz182-L (antibody, V domains shown) VH: QVQLVQSGAEVKKPGASVKVSCKASGYKFTNYVMHWVRQAPGQRLEWMGYINPGNDGIKYNEKFTGRVTITRDTSASTAYMELSSLRSEDTAVYYCAREGDFYANYGRLGFAYWGQGTLVTVSS VL: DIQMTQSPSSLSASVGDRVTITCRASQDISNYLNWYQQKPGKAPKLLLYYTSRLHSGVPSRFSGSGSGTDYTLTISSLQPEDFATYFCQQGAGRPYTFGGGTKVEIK
Reply: 0.00316

Ask: Report measured koff; entry is hz140-Hm4/hz182-L (antibody, V domains shown) VH: QVQLVQSGAEVKKPGASVKVSCKASGYKFTNYVMSWVRQAPGQRLEWMGYINPYNDGIKYNEKFTGRVTITRDTSASTAYMELSSLRSEDTAVYYCAREGDFYANYGRLGFAYWGQGTLVTVSS VL: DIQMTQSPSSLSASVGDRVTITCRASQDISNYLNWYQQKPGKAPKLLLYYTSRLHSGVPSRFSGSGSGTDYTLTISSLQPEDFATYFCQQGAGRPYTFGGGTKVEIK
Reply: 0.00171

Ask: Report measured koff; entry is hz140-H/hz182-L (antibody, V domains shown, Hybrid antibody: heavy chain of hz140 with the light chain of hz182) VH: QVQLVQSGAEVKKPGASVKVSCKASGYKFTNYVMHWVRQAPGQRLEWMGYINPYNDGIKYNEKFTGRVTITRDTSASTAYMELSSLRSEDTAVYYCAREGDFYANYGRLGFAYWGQGTLVTVSS VL: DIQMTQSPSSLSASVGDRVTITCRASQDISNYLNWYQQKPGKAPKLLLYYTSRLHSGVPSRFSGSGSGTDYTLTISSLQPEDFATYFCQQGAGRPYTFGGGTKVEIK
Reply: 0.000226
